Would you kindly list IC50 for each of these molecules?
target: adenosine A2B receptor (Homo sapiens (Human), UniProt P29275)
Sequence (P29275 whole entry): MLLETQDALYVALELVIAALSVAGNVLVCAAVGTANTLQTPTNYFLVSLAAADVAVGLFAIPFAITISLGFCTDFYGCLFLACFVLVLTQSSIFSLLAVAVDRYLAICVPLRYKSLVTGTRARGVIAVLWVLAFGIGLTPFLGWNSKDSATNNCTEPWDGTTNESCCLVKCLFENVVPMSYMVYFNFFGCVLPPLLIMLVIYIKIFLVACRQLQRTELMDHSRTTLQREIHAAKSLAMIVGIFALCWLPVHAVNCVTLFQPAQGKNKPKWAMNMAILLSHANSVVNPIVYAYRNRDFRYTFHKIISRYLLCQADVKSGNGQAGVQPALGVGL
procedure_text: Adenosine receptor activity assay (Table 1), A2B activity
Assay type: biochemical
protocol_conditions: read-out: Ave A2B cAMP IC50

Note IC50 for the molecule shown: Cc1cc2nc(N[C@@H](C)c3cncc(F)c3)nc(C(=O)N3CC(NC(=O)CNC(=O)c4ccccc4)C3)c2s1
0.01 to 0.05 µM

Consider the molecule COc1ccc([C@@H](C)Nc2nc(C(=O)NCc3ccc(OC)nc3)c3sccc3n2)cc1 and give its recorded IC50.
> 0.5 µM

Indicate its recorded IC50; the molecule in question is Cc1cc2nc(N[C@@H](C)c3cncc(F)c3)nc(C(=O)NCC3CCNCC3)c2s1
0.05 to 0.1 µM

Give IC50 for the following molecule: COC[C@H]1CCN(C(=O)c2nc(N[C@@H](C)c3ccccn3)nc3cc(C)sc23)C1
0.01 to 0.05 µM

Annotate the molecule C[C@H](Nc1nc(C(=O)N2CCCC2)c2sccc2n1)c1ccncc1 with its measured IC50.
0.01 to 0.05 µM

Consider the molecule C[C@H](Nc1nc(C(=O)N2CCC2)c2sccc2n1)c1cccnc1 . State its measured IC50.
< 0.01 µM

Give the reported IC50 for this molecule. C[C@H](Nc1nc(C(=O)NCCc2ccc(NC(=O)OC(C)(C)C)cc2)c2sccc2n1)c1cncc(F)c1
0.1 to 0.5 µM

Provide one value: measured IC50 of Cc1cc2nc(N[C@@H](C)c3cncc(F)c3)nc(C(=O)NCCC3CN(C(=O)C(F)(F)F)C3)c2s1
> 0.5 µM

Give the measured IC50 for CC(=O)N[C@H]1CCN(C(=O)c2nc(N[C@@H](C)c3cncc(F)c3)nc3ccsc23)C1
< 0.01 µM

State its IC50: C[C@H](Nc1nc(C(=O)NCC2CCC2)c2sccc2n1)c1ccccn1
0.01 to 0.05 µM

Find the measured IC50 of C[C@H](Nc1nc(C(=O)NC[C@H]2CCCN2)c2sccc2n1)c1ccccn1 and report it.
> 0.5 µM

Answer with reported IC50 of C[C@H](Nc1nc(C(=O)NCCO)c2sccc2n1)c1cncc(Cl)c1
0.01 to 0.05 µM

Annotate the molecule Cc1cc2nc(N[C@@H](C)c3cncc(F)c3)nc(C(=O)N3CC[C@H]3C)c2s1 with its measured IC50.
< 0.01 µM

Tell me measured IC50 for C[C@H](Nc1nc(C(=O)N2CC[C@@H](N)C2)c2sccc2n1)c1cccnc1 please.
> 0.5 µM
